All figures here come from patent US20110059910A1.

# experimental.system: human sodium-dependent glucose transporter 2 (SGLT2, SLC5A2) (Homo sapiens)
# Construct: Bases 21 to 2039 correspond to the complete coding region of human SGLT2
# Sequence (P31639 1-672): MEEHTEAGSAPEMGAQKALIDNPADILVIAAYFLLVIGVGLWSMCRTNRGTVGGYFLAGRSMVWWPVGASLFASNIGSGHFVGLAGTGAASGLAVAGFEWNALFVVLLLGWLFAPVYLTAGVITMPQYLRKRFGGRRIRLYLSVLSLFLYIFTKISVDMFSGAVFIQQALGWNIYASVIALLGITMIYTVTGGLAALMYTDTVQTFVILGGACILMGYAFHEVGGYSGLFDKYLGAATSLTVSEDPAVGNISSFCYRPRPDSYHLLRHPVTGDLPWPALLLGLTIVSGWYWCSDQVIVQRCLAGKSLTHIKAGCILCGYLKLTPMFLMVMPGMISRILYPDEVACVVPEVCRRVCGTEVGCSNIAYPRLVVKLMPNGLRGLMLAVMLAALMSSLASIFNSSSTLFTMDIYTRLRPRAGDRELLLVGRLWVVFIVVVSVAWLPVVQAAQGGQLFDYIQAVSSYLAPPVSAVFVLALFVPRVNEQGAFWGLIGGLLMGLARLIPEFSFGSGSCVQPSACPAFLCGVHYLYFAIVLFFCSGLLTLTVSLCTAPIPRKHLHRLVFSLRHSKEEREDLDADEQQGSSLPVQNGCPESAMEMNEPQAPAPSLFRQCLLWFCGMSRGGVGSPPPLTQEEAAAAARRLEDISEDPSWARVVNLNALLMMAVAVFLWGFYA
# protocol.description: Inhibition of the transport activity of human SGLT2 in vitro (α-MDG uptake in CHO-TRex-hSGLT2 cells)
# run.parameters: 50 μM α-MDG, 120 min at 37° C.
pIC50: −log10 of the molar value.
Decision: pIC50 >= 7 yields rule met, all other cases yield rule not met.

Here's what some known entries look like.
[
  {
    "molecule": "COc1ccc(Cc2cc([C@@H]3O[C@H](CO)C(F)(F)[C@H](O)[C@H]3O)ccc2OC(F)(F)F)cc1",
    "experimental.system": "human sodium-dependent glucose transporter 2 (SGLT2, SLC5A2) (Homo sapiens)",
    "classification": "rule not met"
  },
  {
    "molecule": "CCOC(=O)OC[C@H]1O[C@@H](c2ccc(Cl)c(Cc3ccc(Cl)cc3)c2)[C@H](O)[C@@H](O)C1(F)F",
    "experimental.system": "human sodium-dependent glucose transporter 2 (SGLT2, SLC5A2) (Homo sapiens)",
    "classification": "rule not met"
  },
  {
    "molecule": "CC(C)Oc1ccc(Cc2cc([C@@H]3O[C@H](CO)C(F)(F)[C@H](O)[C@H]3O)ccc2Cl)cc1",
    "experimental.system": "human sodium-dependent glucose transporter 2 (SGLT2, SLC5A2) (Homo sapiens)",
    "classification": "rule met"
  },
  {
    "molecule": "OC[C@H]1O[C@@H](c2ccc(Cl)c(Cc3ccc(O)cc3)c2)[C@H](O)[C@@H](O)C1(F)F",
    "experimental.system": "human sodium-dependent glucose transporter 2 (SGLT2, SLC5A2) (Homo sapiens)",
    "classification": "rule met"
  },
  {
    "molecule": "CCOC(=O)OC[C@H]1O[C@@H](c2ccc(OC(F)(F)F)c(Cc3ccc(OC)cc3)c2)[C@H](O)[C@@H](O)[C@@H]1F",
    "experimental.system": "human sodium-dependent glucose transporter 2 (SGLT2, SLC5A2) (Homo sapiens)",
    "classification": "rule not met"
  }
]

// switching to the query molecule
Task item: Hi, just wondering whether OCC1OC(c2ccc(Cl)c(Cc3ccc(OCC4CC4)cc3)c2)C(O)C(O)C1(F)F (stereo not shown) shows pIC50 of 7 or higher.
Reply: rule met

----------
# IC50 per entry
# experimental.system: human sodium-dependent glucose transporter 1 (SGLT1, SLC5A1) (Homo sapiens, UniProt P13866)
# Construct: Bases 11 to 2005 correspond to the complete coding region of human SGLT1
# Sequence (P13866 whole entry): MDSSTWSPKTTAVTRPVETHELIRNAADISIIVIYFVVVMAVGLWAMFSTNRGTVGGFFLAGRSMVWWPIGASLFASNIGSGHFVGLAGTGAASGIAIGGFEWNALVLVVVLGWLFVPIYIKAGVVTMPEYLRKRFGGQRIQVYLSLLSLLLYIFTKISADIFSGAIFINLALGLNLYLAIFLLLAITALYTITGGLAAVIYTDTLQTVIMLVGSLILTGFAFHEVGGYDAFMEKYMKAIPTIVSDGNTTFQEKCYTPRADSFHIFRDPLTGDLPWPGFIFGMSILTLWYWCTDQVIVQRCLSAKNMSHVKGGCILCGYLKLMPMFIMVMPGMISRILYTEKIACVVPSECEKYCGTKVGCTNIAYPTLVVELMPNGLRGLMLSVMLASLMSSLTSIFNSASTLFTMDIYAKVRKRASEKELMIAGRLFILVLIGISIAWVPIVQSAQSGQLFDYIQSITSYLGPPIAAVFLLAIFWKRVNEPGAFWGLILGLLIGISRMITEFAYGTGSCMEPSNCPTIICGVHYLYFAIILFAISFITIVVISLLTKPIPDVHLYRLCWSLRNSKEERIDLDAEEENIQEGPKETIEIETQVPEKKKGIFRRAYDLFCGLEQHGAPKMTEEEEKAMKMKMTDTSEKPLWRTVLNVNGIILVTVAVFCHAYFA
# protocol.description: Inhibition of the transport activity of human SGLT1 in vitro (α-MDG uptake in CHO-TRex-hSGLT1 cells)
# run.parameters: 50 μM α-MDG, 30 min at room temperature

Task item: Give the measured IC50 of CCOC(=O)OCC1OC(c2ccc(Cl)c(Cc3ccc(OC)cc3)c2)C(O)C(O)C1(F)F (stereo not shown) .
Reply: 50 µM

----------
# experimental.system: human sodium-dependent glucose transporter 1 (SGLT1, SLC5A1) (Homo sapiens)
# Construct: Bases 11 to 2005 correspond to the complete coding region of human SGLT1; expressed in transfected cells
# protocol.description: Inhibition of the transport activity of human SGLT1 in vitro (α-MDG uptake in CHO-TRex-hSGLT1 cells)
# Assay type: cell-based
# run.parameters: 50 μM α-MDG, 30 min at room temperature
# Experimental: Inhibition of the Transport Activity of the Human Sodium-Dependent Glucose Transporter 1 (SGLT1, SLC5A1) In Vitro: 1. Cloning of an Expression Vector for Human SGLT1 […] The half-maximum inhibiting action of the test substances (IC50 value) was determined as follows: • 4. […] This is the measurement in the absence of substance, measured in sodium-containing transport assay buffer. • 5. […]
assay.metric: IC50

[
  {
    "compound": "CCOC(=O)OC[C@H]1O[C@@H](c2ccc(C(F)(F)F)c(Cc3ccc(OC)cc3)c2)[C@H](O)[C@@H](O)C1(F)F",
    "IC50": "> 100000 nM"
  },
  {
    "compound": "COc1ccc(Cc2cc(C3OC(CO)C(F)(F)C(O)C3O)ccc2Cl)nc1 (centres unmarked)",
    "IC50": "26500 nM"
  },
  {
    "compound": "COc1ccc(Cc2cc(C3OC(CO)C(F)C(O)C3O)ccc2OC)cc1 (centres unmarked)",
    "IC50": "152 nM"
  },
  {
    "compound": "Cc1ccc(C2OC(CO)C(F)(F)C(O)C2O)cc1Cc1ccc(O)cc1 (centres unmarked)",
    "IC50": "2600 nM"
  },
  {
    "compound": "CCc1ccc(Cc2cc(C3OC(CO)C(F)C(O)C3O)ccc2Cl)s1 (centres unmarked)",
    "IC50": "475 nM"
  },
  {
    "compound": "COc1ccc(Cc2cc([C@@H]3O[C@H](CO)C(F)(F)[C@H](O)[C@H]3O)ccc2OC(F)(F)F)cc1",
    "IC50": "3300 nM"
  },
  {
    "compound": "CCOC(=O)OCC1OC(c2ccc(OC)c(Cc3ccc(OC)cc3)c2)C(O)C(O)C1F (centres unmarked)",
    "IC50": "1500 nM"
  }
]

Next compound, please.
Task item: Give the measured IC50 of CCOC(=O)OC[C@H]1O[C@@H](c2ccc(OC(F)(F)F)c(Cc3ccc(OC)cc3)c2)[C@H](O)[C@@H](O)[C@@H]1F .
Reply: 22800 nM

----------
# experimental.system: human sodium-dependent glucose transporter 2 (SGLT2, SLC5A2) (Homo sapiens, UniProt P31639)
# Construct: Bases 21 to 2039 correspond to the complete coding region of human SGLT2
# Sequence (P31639 1-672): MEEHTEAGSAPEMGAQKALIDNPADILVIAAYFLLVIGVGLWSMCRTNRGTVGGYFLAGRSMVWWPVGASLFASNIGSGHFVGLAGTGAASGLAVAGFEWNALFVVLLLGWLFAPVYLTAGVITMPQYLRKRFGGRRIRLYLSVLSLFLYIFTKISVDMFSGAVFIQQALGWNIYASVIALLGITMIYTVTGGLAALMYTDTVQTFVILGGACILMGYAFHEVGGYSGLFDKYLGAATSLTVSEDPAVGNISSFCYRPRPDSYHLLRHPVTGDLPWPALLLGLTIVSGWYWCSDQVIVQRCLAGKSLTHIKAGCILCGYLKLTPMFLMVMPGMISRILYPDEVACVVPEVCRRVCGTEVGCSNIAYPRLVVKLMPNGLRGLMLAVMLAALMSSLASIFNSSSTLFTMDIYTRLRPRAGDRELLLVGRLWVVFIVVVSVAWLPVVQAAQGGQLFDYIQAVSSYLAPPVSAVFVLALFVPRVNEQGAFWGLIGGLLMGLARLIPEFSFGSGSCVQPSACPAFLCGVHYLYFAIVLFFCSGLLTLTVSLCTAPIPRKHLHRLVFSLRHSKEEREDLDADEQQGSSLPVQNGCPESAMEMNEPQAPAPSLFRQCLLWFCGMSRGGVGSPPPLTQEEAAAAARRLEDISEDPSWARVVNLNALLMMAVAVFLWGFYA
# protocol.description: Inhibition of the transport activity of human SGLT2 in vitro (α-MDG uptake in CHO-TRex-hSGLT2 cells)
# run.parameters: 50 μM α-MDG, 120 min at 37° C.
assay.metric: IC50 (nM)
Record the value in nM, omitting the unit from your answer.

Task item: Give the measured IC50 of COc1ccc(Cc2cc([C@@H]3O[C@H](CO)[C@@H](F)[C@H](O)[C@H]3O)ccc2C(F)(F)F)cc1 .
Reply: 74

Task item: Give the measured IC50 of COc1ccc(Cc2cc(C3OC(CO)C(F)(F)C(O)C3O)ccc2OC)cc1 (centres unmarked) .
Reply: 80

Task item: Give the measured IC50 of CCc1ccc(Cc2cccc(C3OC(CO)C(F)C(O)C3O)c2)cc1 (centres unmarked) .
Reply: 153

Task item: Give the measured IC50 of OC[C@H]1O[C@@H](c2ccc(Cl)c(Cc3ccc(Cl)cc3)c2)[C@H](O)[C@@H](O)C1(F)F .
Reply: 75

Task item: Give the measured IC50 of CCc1ccc(Cc2cc(C3OC(CO)C(F)C(O)C3O)ccc2C(F)(F)F)cc1 (centres unmarked) .
Reply: 107
